molecular target: H-2 I-A^b (mouse); experiment: radioligand binding; competitive inhibition assay: peptides displace a high affinity radio-labeled I-A^b ligand from purified MHC; (label) < (MHC) and IC50 ≥ (MHC), so that IC50 values approximate the true Kd
pIC50: −log10 of the molar value.

# binder, pIC50
data = [
    ("NNYALFLSPRAQQAS [mouse ApoB-100 peptide 4505–4520]", 5.89),
    ("SRATLYALSHAVNSY [mouse ApoB-100 peptide 438–453]", 5.86),
    ("SFTKGNIKSSFLSQEY [ApoB_(3501–3516)-related peptide, position 3489, 16 residues]", 5.93),
]
